The entries below come with measured Score_si4 values attached.
System: CHIKV
Type: cell-based, chikungunya virus
Form rule: numeric answer, no unit written next to it.

In [3]: df
Out[3]:
                                  substance  datavalue
0  s25184 (sense CCCATCAACTTCTCCGTGA; chemistry not given here)       0.53
1  Hs_HSPE1_4 (sense CTGAAATAAGTCACTATTGAA; chemistry not given here)       1.81
2  s31790 (GGCTGTTCCTGAGACTGCA; chemistry not given here)       0.92
3  Hs_SCLY_2 (sense CAGAAACTAAATTAACGAATA; chemistry not given here)       1.04
4  s26802 (sense ACATCTCAGGGACCCATTT; chemistry not given here)       1.65
5  s50143 (sense AAATAAATCTGGTGCATTA; chemistry not given here) [reference compound]      -0.41
6  s6097 (sense TCAGGACCCTGTACACCCA; chemistry not given here)        0.9
7  s35018 (GTGTGAAGGTAGACCGTGA; chemistry not given here)       0.46

Query: Score_si4; subject: Hs_PTPN6_5 (sense CCGGAACAAATGCGTCCCATA; chemistry not given here) 1.05

====

Tested on: CHIKV
Type: cell-based, chikungunya virus
# if value of Score_si1 reaches 2, tag yes (1); if it stays below, tag no (0)

>>> print(df.to_string())
                                  substance  testedtarget    class
0  Hs_CALM2_7 (CAAAGGAATTGGGAACTGTAA; chemistry not given here)         CHIKV  yes (1)

Tell me whether Score_si1 is at least 2 here: s9719 (GGTCTATGATTGACAAGTA; chemistry not given here) no (0)

What do you have for Hs_DC-UbP_2 (CAGGCTTTGAGACTCATGTAA; chemistry not given here) ? no (0)

Okay, and Hs_ACYP1_1 (AAGGATTACCACTGTACACAA; chemistry not given here) [reference compound] ? no (0)

Would you mind doing s15687 (sense CCCGTATCATGATCCACCA; chemistry not given here) as well? no (0)

Same read-out for Hs_EXOSC1_2 (AAGCAGAGAAAGACATCTAAA; chemistry not given here) [reference compound] ? no (0)

Moving on to Hs_PPIL2_2 (AAGGAGGAGATCCGCATTGAT; chemistry not given here) no (0)

Also Hs_SSP411_1 (sense ATGGCCTTGCATACCCTGAAA; chemistry not given here) , if possible. yes (1)

====

Measured Score_si3 of individual entries
Tested on: CHIKV
Type: cell-based, chikungunya virus
// no unit, no text: just the number

Below, each entry is followed by its recorded Score_si3 result.
>>> print(df.to_string())
                                  substance  endpointlabel  datavalue
0  Hs_GPS1_3 (sense CAAGTGGGCGGTGTCCATTAA; chemistry not given here)      Score_si3       1.75
1  Hs_GRB10_4 (sense GTGAATTGTTGGAGAATGTAA; chemistry not given here)      Score_si3       0.73
2  s34678 (GAGTTTAAGATGATGCCTA; chemistry not given here)      Score_si3        0.6
3  s5569 (sense AGGCTGAAGCTAATAAGAA; chemistry not given here)      Score_si3       0.16

Turning now to a further substance:
// returns reported Score_si3 for input s19990 (sense GGCTCTGACTACAAACTGA; chemistry not given here) 0.89

Values compiled from paper PMC4865845.
